Every entry's value here was drawn from the supplement of paper PMC9732359.

Assay: protein stability index of a GFP-peptide fusion (yeast GPS) (PSI 1-4); higher = more stable; sorted into four equal gates, so the index is relative within each strain
Condition Description: san1∆
Each entry below carries its recorded protein stability index.
Number, no unit, nothing else.

>>> print(df.to_string())
                 seq_string  numeric_value
0  TLQTISFLGYLRYVKQI [ISW2]            1.5
1  FYVPQARNVTFDSLRNF [GRR1]           2.52
2  SLHNTEKIMENKYPELL [AAR2]              3

The measured protein stability index associated with SSVKCFGPIKVELPTKE [FAS1] reads 2.56

The measured protein stability index associated with SFHVQKKTCSSCGYPAA [RPL37A] reads 1.71

The measured protein stability index associated with NNIRQAICRYANVIKAL [RRP4] reads 1.17

The measured protein stability index associated with DLSLNIHPIPSVTVSQG [YMR129W/POM152] reads 1.98

----------
Assay: protein stability index of a GFP-peptide fusion (yeast GPS) (PSI 1-4); higher = more stable; sorted into four equal gates, so the index is relative within each strain
Condition Description: doa10∆
Each entry below carries its recorded protein stability index.
Number, no unit, nothing else.

Below, each entry is followed by its recorded protein stability index result.
>>> df
                          seq_string         observation_type  numeric_value
0          DVNTNANANANATANAT [SNF11]  protein stability index           3.13
1  SNIPTLIEKLQGFSKDT [YDL116W/NUP84]  protein stability index           3.22
2          SFKIFVDVLVISSHSHP [RRP42]  protein stability index           1.21
3           PSNFEINAEEIVDFTLP [PRP8]  protein stability index           2.91
4           IRNVIMSASNANDFQLT [SRB8]  protein stability index           2.06
5   LAKTKENYDAKIELEKK [YIL149C/MLP2]  protein stability index           3.22

The measured protein stability index associated with PDVKSLVQLSTMETKTL [SIR4] reads 2.92

The measured protein stability index associated with VPSYIHVEKERASTELS [YIL149C/MLP2] reads 2.33

The measured protein stability index associated with AIQFVKENELLFGEKSI [YCS4] reads 2.19

The measured protein stability index associated with KKAKLVLIANDVDPIEL [RPL8A] reads 3.17

The measured protein stability index associated with MERLQRLMMNSKVGSAD [RPN11] reads 3.28

----------
Assay: protein stability index of a GFP-peptide fusion (yeast GPS) (PSI 1-4); higher = more stable; sorted into four equal gates, so the index is relative within each strain
Condition Description: pdr5∆
Observation Type: protein stability index

Below, each entry is followed by its recorded protein stability index result.
>>> print(df.to_string())
                   seq_string  result
0   GAKQTQGGAMNKKSEQA [SRP72]    3.07
1  LTQEELERIVQIMQNPT [RPS18A]    3.08
2    HHYRPDMTTEEGLDLLK [PRE1]    3.41
3   AMANAPGNNIPYMNHKN [GAL11]    3.26

Okay, next one:
The measured protein stability index associated with LFQLLNALTVGDFDKFD [RPN9] reads 2.36
